# tgt: human recombinant Yes [a.a. 2–543 (end)] (Homo sapiens, UniProt P07947)
# Construct: human recombinant Yes [a.a; 2–543 (end)]; purchased BPS Bioscience 40488
# Sequence (P07947 2-543): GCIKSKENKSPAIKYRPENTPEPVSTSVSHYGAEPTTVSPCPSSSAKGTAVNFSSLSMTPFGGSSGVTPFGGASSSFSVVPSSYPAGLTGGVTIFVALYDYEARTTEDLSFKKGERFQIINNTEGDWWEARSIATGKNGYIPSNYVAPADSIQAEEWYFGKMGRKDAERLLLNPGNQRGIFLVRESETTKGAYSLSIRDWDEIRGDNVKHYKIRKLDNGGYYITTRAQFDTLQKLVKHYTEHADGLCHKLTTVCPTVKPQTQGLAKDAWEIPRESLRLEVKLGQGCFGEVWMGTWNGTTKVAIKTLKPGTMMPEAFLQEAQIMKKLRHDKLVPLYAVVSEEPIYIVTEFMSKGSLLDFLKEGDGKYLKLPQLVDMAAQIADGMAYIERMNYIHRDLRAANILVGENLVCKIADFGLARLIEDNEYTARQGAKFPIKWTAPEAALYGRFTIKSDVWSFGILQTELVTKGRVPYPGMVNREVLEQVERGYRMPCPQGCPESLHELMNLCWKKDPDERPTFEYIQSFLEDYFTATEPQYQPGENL
# test.summary: ADP-Glo kinase assay, inhibition rates of Yes phosphorylation activity (first and second screening)
# Format: biochemical
# assay.setup: first screening; mean of n = 4 wells; 10 μmol L−1 compound
measurement.label: First screening IR (inhibition rate) (%)
Reply with just the number (in %).

Entry COc1ccc(Nc2nc(COC(=O)CNS(=O)(=O)c3ccc(C)c(C)c3)cs2)cc1 [Compound Z16158532] under human recombinant Yes [a.a. 2–543 (end)] (Homo sapiens, UniProt P07947) had First screening IR (inhibition rate) of -1

Entry CN(CC(=O)Nc1cccc(F)c1)C(=O)c1cc2ccccc2cc1O [Compound Z26987740] under human recombinant Yes [a.a. 2–543 (end)] (Homo sapiens, UniProt P07947) had First screening IR (inhibition rate) of 21

Entry COc1ccc2ccc(OCc3nc(N)nc(N(C)C)n3)cc2c1 [Compound Z168975100] under human recombinant Yes [a.a. 2–543 (end)] (Homo sapiens, UniProt P07947) had First screening IR (inhibition rate) of 6

Entry Cc1nc2cc(NC(=O)c3cc(C)n(-c4cccnc4)c3C)ccc2o1 [Compound Z395169542] under human recombinant Yes [a.a. 2–543 (end)] (Homo sapiens, UniProt P07947) had First screening IR (inhibition rate) of 6

Entry CS(=O)(=O)c1ccc(F)c(S(C)(=O)=O)c1 [Compound Z652718652] under human recombinant Yes [a.a. 2–543 (end)] (Homo sapiens, UniProt P07947) had First screening IR (inhibition rate) of 31

Entry COc1cc(/C=N/NC(=O)c2cc(-c3cccnc3)nc3ccccc23)ccc1OCc1ccc(Cl)cc1 [Compound Z49638448] under human recombinant Yes [a.a. 2–543 (end)] (Homo sapiens, UniProt P07947) had First screening IR (inhibition rate) of -1

Entry Cn1cncc1CC(=O)Nc1ccc2nc(-c3cc(F)ccc3F)[nH]c2c1 [Compound Z1737110153] under human recombinant Yes [a.a. 2–543 (end)] (Homo sapiens, UniProt P07947) had First screening IR (inhibition rate) of 6

Entry Cc1cc(COC(=O)c2cc(-c3ccccc3)nc3c2cnn3Cc2ccccc2)no1 [Compound Z228519880] under human recombinant Yes [a.a. 2–543 (end)] (Homo sapiens, UniProt P07947) had First screening IR (inhibition rate) of -10

Entry NC(=O)Nc1ccc(NC(=O)Cc2csc(Cc3ccccc3)n2)cc1 [Compound Z383135670] under human recombinant Yes [a.a. 2–543 (end)] (Homo sapiens, UniProt P07947) had First screening IR (inhibition rate) of -14

Entry Cc1nc(/C=C2/C(=O)Nc3ccc(Cl)cc32)cs1 [Compound Z44304809] under human recombinant Yes [a.a. 2–543 (end)] (Homo sapiens, UniProt P07947) had First screening IR (inhibition rate) of 13

Entry O=S(=O)(c1c(Cl)cccc1Cl)N1CCN(Cc2nc3ccccc3s2)CC1 [Compound Z45503858] under human recombinant Yes [a.a. 2–543 (end)] (Homo sapiens, UniProt P07947) had First screening IR (inhibition rate) of 3

Entry O=C(NCCCN1CCCC1=O)c1cc(-c2ccccc2)nc2c1cnn2Cc1cccc(F)c1 [Compound Z116386688] under human recombinant Yes [a.a. 2–543 (end)] (Homo sapiens, UniProt P07947) had First screening IR (inhibition rate) of 3

Entry Cl.Fc1ccccc1-c1cc(-c2ccccc2)c2ccccc2n1 [Compound Z48951009] under human recombinant Yes [a.a. 2–543 (end)] (Homo sapiens, UniProt P07947) had First screening IR (inhibition rate) of 5

Entry Cc1nn(-c2ccccc2)c(Cl)c1CN1CCN(S(=O)(=O)c2ccccc2C(F)(F)F)CC1 [Compound Z94609806] under human recombinant Yes [a.a. 2–543 (end)] (Homo sapiens, UniProt P07947) had First screening IR (inhibition rate) of 3

Entry NS(=O)(=O)c1ccc2nc(-c3ccc4c(c3)-c3ccccc3C4)cn2c1 [Compound Z82176567] under human recombinant Yes [a.a. 2–543 (end)] (Homo sapiens, UniProt P07947) had First screening IR (inhibition rate) of 27

Entry CCOC(=O)c1c(-c2ccc(OC)c(OC)c2)csc1NC(=O)CN1CCN(C(=O)c2ccccc2)CC1 [Compound Z46404770] under human recombinant Yes [a.a. 2–543 (end)] (Homo sapiens, UniProt P07947) had First screening IR (inhibition rate) of 2
